Assignment: determine reported cell count for the given molecules.
Assay: sensitizers of A549 cells to miR-34 induction, primary screen, imaging, A549 dox-inducible miR-34, nuclei and caspase counts (AID 1347080)
Conditions: A549 miR-34 inducible, Hoechst nuclei count, 48 h; measured here: total cells with miR-34 induction; stronger effect = lower value
One number for each entry.

{"MOLECULE": "Cc1ccc(O)cc1", "cell count": 10700}
{"MOLECULE": "CC(=O)OCC(=O)[C@@]1(O)CC[C@H]2[C@@H]3C[C@H](C)C4=CC(=O)C=C[C@]4(C)[C@H]3[C@@H](O)C[C@@]21C", "cell count": 8310}
{"MOLECULE": "CCC1NC(=O)c2cc(S(N)(=O)=O)c(Cl)cc2N1 (stereo not given)", "cell count": 8110}

// for each molecule in input: emit cell count
1. CC1=C(C(=O)OC(C)C)C(c2cccc([N+](=O)[O-])c2)C(C(=O)OC2CN(C(c3ccccc3)c3ccccc3)C2)=C(N)N1 (stereo not given)
2. CC1(C)CCC(C)(C)c2cc(NC(=O)c3ccc(C(=O)O)cc3)ccc21

7560
8210

// for each molecule in input: emit cell count
1. NS(=O)(=O)c1cc(C(=O)O)cc(N2CCCC2)c1Oc1ccccc1
2. C[C@@H](NCCCc1cccc(C(F)(F)F)c1)c1cccc2ccccc12
3. CCN(CC)C(=O)/C(C#N)=C/c1cc(O)c(O)c([N+](=O)[O-])c1
4. CC[N+](CC)(CCNC(=O)C(=O)NCC[N+](CC)(CC)Cc1ccccc1Cl)Cc1ccccc1Cl

8630
5970
10100
8990

Give the measured cell count for CCCCCCCCCCCCCCCC(=O)O
5900

---

Experiment: growth inhibition of GSK3B-pretreated HCT116 cells – cell-based, CellTiter-Glo, 0.2 to 20 µM (AID 1117336)
Conditions: HCT116 viability after GSK3B inhibitor, at 20 µM
The source made the active and inactive calls.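 How the source made its calls: active means compounds lowering colon cancer cell viability after pretreatment blocking the GSK3B kinase; inactive means the rest.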
// one of 1.0 (active), 0.0 (inactive), no free text

Please state the recorded outcome for this molecule: CN(C/C=C/c1ccccc1)Cc1cccc2ccccc12
1.0

Please state the recorded outcome for this molecule: Cc1ccc(-n2nc(C(C)(C)C)cc2NC(=O)Nc2ccc(OCCN3CCOCC3)c3ccccc23)cc1
1.0

Please state the recorded outcome for this molecule: CCCn1cnc2c1c(=O)n(CCCCC(C)=O)c(=O)n2C
0.0

Please state the recorded outcome for this molecule: COc1ccc2c(c1OC)C(=O)O[C@@H]2[C@H]1c2c(cc3c(c2OC)OCO3)CCN1C
1.0

Please state the recorded outcome for this molecule: COc1cc(NCc2ccc3nc(N)nc(N)c3c2C)cc(OC)c1OC
1.0

Please state the recorded outcome for this molecule: Cc1ccc2c(c1)c1c3n2CCNC3CCC1 (stereo unspecified)
0.0

Please state the recorded outcome for this molecule: CCC1NC(=O)c2cc(S(N)(=O)=O)c(Cl)cc2N1 (stereo unspecified)
0.0

Please state the recorded outcome for this molecule: CNCCC(Oc1ccccc1OC)c1ccccc1 (stereo unspecified)
0.0

---

Test: HepG2 cytotoxicity, primary screen, cytotoxicity control for P. falciparum antimalarial project, cell-based, ATP luminescence (AID 2303);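 note: 0% = DMSO wells and 100% = digitonin-killed cells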
Details: HepG2 viability, 24-48 h, at 10 µM, stronger effect = higher value
Assignment: determine reported inhibition for the given molecules.
Answers are plain numbers, in %.

{"MOLECULE": "CN1CCC(C(=O)Nc2ccc(-c3cccc(-c4nc5ccc(C(F)(F)F)cc5[nH]4)c3)cc2)CC1", "RESULT UNITS": "%", "MEASURED": 28}

// for each molecule in input: emit inhibition
1. O=c1cc(NCCCNCc2ccc(Cl)c(Cl)c2)[nH]c2cc(Cl)ccc12
2. NC(=O)COc1cccc2c1CCN(CCN1CCC(NC(=O)c3ccc(-c4ccc(Cl)cc4)cc3)CC1)C2
3. CC(C)c1ccc(CN2CCCCC(NC(=O)c3cc(-c4ccccc4Cl)cs3)C2)cc1 (stereo not given)
4. CCNc1cc(C(=O)N[C@@H](Cc2ccc(F)c(F)c2)[C@H](O)CNCc2cccc(OC)c2)cc(N2CCCCS2(=O)=O)c1
5. Cc1ccc2c(NN=Cc3cccc(F)c3)cc(C)nc2c1

1: 1; 2: 44; 3: 8; 4: 4; 5: 34

// for each molecule in input: emit inhibition
1. CC(=O)N1N=C(c2ccc(Cl)cc2)Sc2c1nc(C1CCCCC1)n2C(C)=O
2. FC(F)(F)c1ccc2nccc(NN=Cc3ccc(Cl)cc3)c2c1
3. CC(CNC(=O)c1cc2c(Cl)cc(Cl)cc2[nH]1)CNc1cc(=O)c2ccccc2[nH]1 (stereo not given)
4. CCCn1c(Sc2ccc(C#N)c([N+](=O)[O-])c2)nnc1-c1cc(OC)cc(OC)c1
5. O=C(Nc1ccc(Oc2ccc(OC(F)(F)F)cc2)cc1)c1ccco1

1
5
11
24
5

// for each molecule in input: emit inhibition
1. Cc1cc(OCc2ccncc2)cc2c1C(=O)CC(C)(C)O2
2. Cc1noc(C)c1-c1ccc2c(Nc3ccccc3C(C)(C)C)c(C(=O)NCc3ccc(OC(C)C)cc3)cnc2c1
3. O=C1C(c2ccccc2)=C(Nc2ccc(Cl)cc2)c2ccccc21
4. COc1cc2c(cc1S(=O)(=O)c1ccc(NC(=O)c3cc4ccccc4s3)cc1)CCN(C)CC2
5. COc1ccc(-c2cccc(NC(=O)c3ccc(F)cc3)c2)cc1CNC(C)C
6. O=C(Nc1ccc(C(F)(F)F)cc1)Nc1ccccc1N1CCNCC1
7. Cn1ncc2c3c(CCN4CCC(NCc5cc6c(cn5)OCCO6)CC4)c(Cl)cnc3ccc21
8. COc1cc(Cc2cnc(N)nc2N)cc(OC)c1OC

1. -5
2. -3
3. 5
4. 21
5. 32
6. 39
7. 1
8. 0

Give the measured inhibition for CC1(C)N=C(N)N=C(N)N1c1ccc2ccccc2c1
48

The origin of these recorded values is PubChem BioAssay.
